# System: NCI-H226 lung
# experimental_details: NCI-60 one-dose screen, 48 h (100 = growth as untreated, 0 = no growth, -100 = all killed)
# test_conditions: 10 µM unless noted
The panel holds about 83,000 compounds, 20% with a hit somewhere; the sample as a whole holds those more often. Activity calls are given as the source filed them. Rule for the calls: active = growth percent below 10; inactive = the rest.
Can you tell me growth for the items I'm about to list?

Request the reported growth associated with "O=C(NNc1nc2cc(F)ccc2n2c(CN3CCCCC3)ccc12)c1cnccn1"
-24.6% (active)

Another compound to check: "COc1ccc(/C=C2\C(=O)Nc3ccc(Cl)cc32)cc1OCc1ccccn1"
15.6% (inactive)

Another compound to check: COc1c(F)ccc(C(=O)Nc2ccc3nc(NC(=O)C4CCCN(S(=O)(=O)c5cccc(Cl)c5)C4)sc3c2)c1F (centres undefined)
77.3% (inactive)

Another compound to check: "COC(=O)C[C@](O)(CCCC(C)(C)O)C(=O)O[C@H]1C(OC)=C[C@@]23CCCN2CCc2cc4c(cc2[C@@H]13)OCO4"
-21.4% (active)

* * *

# System: SR leukemia
# experimental_details: NCI-60 one-dose screen, 48 h
# test_conditions: 10 µM unless noted
This is part of a sample that, as a whole, favours compounds with a hit. Of some 83,000 tested, about 20% had one in any assay. Active and inactive are the calls of the source. How the source made its calls: active means growth percent below 10; inactive means the rest.
Select the matching outcome among true (active), false (inactive)

Record lookup: outcome of this test for C=C1CC[C@@H]2[C@]3(C)COC(c4cn(-c5ccccc5)nc4-c4cccc([N+](=O)[O-])c4)O[C@@H]3CC[C@@]2(C)[C@@H]1C/C=C1/C(=O)OC[C@H]1O (some centres undefined) ?
true

Another compound to check: "Cn1cc(-c2cc(N)n3nc(-c4cn(C)c5ncccc45)cc3n2)c2cccnc21"
false

Another compound to check: CN(C)c1nc(NCCNS(=O)(=O)c2ccc(C3=Nc4c(N)nc(N)nc4NC(c4ccc(Cl)cc4)C3)cc2)nc(Nc2ccc(F)cc2)n1 (centres undefined)
true

Another compound to check: "COc1cccc(-c2c(C#N)c(-c3ccc(Cl)cc3)nc3n[nH]c(-c4ccc(Cl)cc4)c23)c1"
false

* * *

# Test system: NCI-H23 lung
# experimental_details: NCI-60 one-dose screen, 48 h (100 = growth as untreated, 0 = no growth, -100 = all killed)
# test_conditions: 10 µM unless noted
The panel holds about 83,000 compounds, 20% with a hit somewhere; the sample as a whole holds those more often.
measured_parameter: growth (%)
Write it as a number; the unit % goes unstated.

Request the reported growth associated with "CCCCSc1nc(Nc2ccc(S(N)(=O)=O)cc2)c(C#N)c(-c2ccc(Cl)cc2)n1"
26.1

Another compound to check: "O=C1N/C(=N\c2nccs2)S/C1=C\C=C/c1ccccc1"
55.8

Another compound to check: "COc1ccc(/C=C2\C(=O)Nc3ccc(Cl)cc32)cc1OCc1ccccn1"
31.6

Another compound to check: "CCC(C)(C)c1ccc(OCCCCN2CCN(c3ccncc3)CC2)cc1"
22.1

Another compound to check: "Cc1ccc(C(=O)NN2C(=O)/C(=C/C=C/c3ccc([N+](=O)[O-])o3)SC2=S)cc1"
-84

Another compound to check: O=C(c1ccc(OCCN2CCOCC2)cc1)C1[C@H](c2ccc(Cl)cc2)[C@@H](c2ccccc2)NC12C(=O)Nc1ccc(Br)cc12 (some centres undefined)
26.1

Another compound to check: "NS(=O)(=O)c1ccc(CCNC(=O)CSc2ccc(-c3ccc(Br)cc3)nn2)cc1"
47.2

Another compound to check: "N/C(=N\c1nc2ccccc2s1)NC(=O)Nc1ccc(Cl)cc1Cl"
-83.4

Another compound to check: "NS(=O)(=O)c1ccc(-n2cc(-c3cccc(NC(=O)c4ccc(Cl)c(C(F)(F)F)c4)c3)nn2)cc1"
-4.59

* * *

Can you tell me growth for the items I'm about to list?
# Test system: PC-3 prostate
# experimental_details: NCI-60 one-dose screen, 48 h (100 = growth as untreated, 0 = no growth, -100 = all killed)
# test_conditions: 10 µM unless noted
The panel holds about 83,000 compounds, 20% with a hit somewhere; the sample as a whole holds those more often. Active and inactive are the calls of the source. The calls were made as follows: active = growth percent below 10; inactive = the rest.

Give the reported growth for CCOC(=O)C1=C(N)N(c2ccccc2)C2=C(C(=O)CC(C)(C)C2)C1c1ccccc1Cl (stereo not drawn) (system: PC-3 prostate).
29.6% (inactive)

Another compound to check: CCN1C(=O)N(CC)C2NNC(Sc3c(C(=O)O)c4ccccc4n(C4CCCC4)c3=O)=NC21 (stereo not drawn)
36.3% (inactive)

Another compound to check: "CC(C)c1sc(NC(=O)c2cc(NC(=O)c3cc(NC(=O)c4nccn4C)cn3C)cn2C)nc1C(=O)NCCCN(C)C"
46% (inactive)

Another compound to check: CC1(C)CC[C@]2(C(=O)O)CC[C@]3(C)C(=CCC4[C@@]5(C)C[C@@H](O)[C@@H]6OC(c7ccccc7Br)OC[C@@]6(C)C5CC[C@]43C)C2C1 (stereo partly drawn)
13.1% (inactive)

Another compound to check: "O=C(c1ccc(Cl)cc1)c1ccc(OCCCN2CCN(c3ccncc3)CC2)cc1"
26.9% (inactive)

Another compound to check: "COC(=O)C[C@](O)(CCCC(C)(C)O)C(=O)O[C@H]1C(OC)=C[C@@]23CCCN2CCc2cc4c(cc2[C@@H]13)OCO4"
-15.1% (active)

Another compound to check: COc1c(F)ccc(C(=O)Nc2ccc3nc(NC(=O)C4CCCN(S(=O)(=O)C5CC5)C4)sc3c2)c1F (stereo not drawn)
39.1% (inactive)

Another compound to check: "C[C@H](Nc1nc(NCCc2ccccc2)nc2ccccc12)c1ccccc1"
-54.5% (active)

Another compound to check: "O=C1NC(=O)/C(=C/c2ccccc2OCc2cc3ccccc3nc2Cl)S1"
112% (inactive)

Another compound to check: CCOP(=O)(OCCCl)c1nc(-c2ccc(C)cc2)oc1NCc1ccccc1 (stereo not drawn)
44.4% (inactive)

Another compound to check: "Cn1cc(-c2cc3nc(-c4cn(C)c5ncc(Br)cc45)cc(N)n3n2)c2cc(Cl)ccc21"
-62.5% (active)

Another compound to check: "N/C(=N\c1nc2ccccc2s1)NC(=O)NCCCCCCO"
47.3% (inactive)

Another compound to check: "COc1ccc2c(c1)c(-c1cc3nc(-c4cn(C)c5ncccc45)cc(N)n3n1)cn2C"
-1.31% (active)

Another compound to check: CC(C)(C)OC(=O)/C=C/c1cccc2c1C(=O)NC(C)(c1cc3cc(Cl)ccc3oc1=O)N2 (stereo not drawn)
12.5% (inactive)

Another compound to check: "COc1cc2oc(-c3cccc(NC(=O)[C@H](Cc4ccccc4)NC(=O)OC(C)(C)C)c3)cc(=O)c2c(OC)c1OC"
39.7% (inactive)

Another compound to check: "O=C(c1ccccc1)c1ccc2nc(-c3ccc(F)cc3)[nH]c2c1"
56.4% (inactive)

Another compound to check: "O=C(Nc1cccc(-n2cnc3cc(-c4ccc(O)cc4)ccc32)c1)C1CC1"
47% (inactive)

Another compound to check: CC(=O)/C=C/c1cccc2c1C(=O)NC(C)(c1cc3cc(Br)ccc3oc1=O)N2 (stereo not drawn)
21.6% (inactive)

* * *

# Test system: CCRF-CEM leukemia
# experimental_details: NCI-60 one-dose screen, 48 h
# test_conditions: 10 µM unless noted
Compounds without any hit were thinned out: in the full panel of roughly 83,000, 20% have a hit. The source made the active and inactive calls. The calls were made as follows: active = growth percent below 10; inactive = the rest.
Select the matching outcome among active, inactive

Record lookup: outcome of this test for "CCCCCCCCc1ccc(S(=O)(=O)Nc2ccc(CC)cc2C(=O)O)cc1" ?
inactive

Another compound to check: "Cc1ccc(NC(=O)CN2CCN(c3ncnc4c3cnn4-c3ccccc3)CC2)cc1"
inactive

Another compound to check: CCOC(=O)C(N=Nc1ccc(S(=O)(=O)N=C(N)N)cc1)C(C)=O (centres undefined)
inactive

Another compound to check: "COc1ccc2[nH]c(O)c(N=NC(=O)COc3ccc(NC(=O)Nc4ccccc4)cc3)c2c1"
inactive

Another compound to check: "COc1cccc(/C=C/C(=O)c2ccc(OC)c(S(N)(=O)=O)c2)c1"
active

Another compound to check: "COc1ccc(-c2nnc3ccc(N/N=C/c4ccc(C)cc4)nn23)cc1"
inactive

Another compound to check: C=C1CC[C@@H]2[C@]3(C)COC(c4cn[nH]c4-c4ccc(C)cc4)O[C@@H]3CC[C@@]2(C)[C@@H]1C/C=C1/C(=O)OCC1O (some centres undefined)
active

Another compound to check: CC(=O)OC[C@@]1(C)C2CC[C@]3(C)C(CC=C4C5CC(C)(C)CC[C@]5(C(=O)Nc5ccc(C)cc5)CC[C@]43C)[C@@]2(C)C[C@@H](OC(C)=O)[C@@H]1OC(C)=O (some centres undefined)
inactive

Another compound to check: "COc1ccccc1/C=C/C(=O)c1ccc(OC)c(S(N)(=O)=O)c1"
active

Another compound to check: "C#CCOc1ccc(/C=N/Nc2nc(-c3cc4cc(Br)ccc4oc3=O)cs2)cc1OC"
inactive

Another compound to check: "CCCCSc1nc(NCCc2c[nH]c3ccccc23)c(C#N)c(-c2ccccc2)n1"
active

Another compound to check: "S=C(Nc1ccccc1)Nc1ccc(OCc2nc3ccccc3[nH]2)cc1"
inactive

Another compound to check: "O=C(COc1ccc(NC(=O)Nc2ccc(Cl)c(Cl)c2)cc1)N=Nc1c(O)[nH]c2ccc(Cl)cc12"
active

Another compound to check: "Cc1ccc(-n2c(-c3cc4ccccc4nc3Cl)noc2=O)cc1"
inactive

Another compound to check: "O=C(Nc1cccc(-n2cnc3cc(-c4ccc(O)cc4)ccc32)c1)C1CC1"
inactive

Another compound to check: "CCCSc1nc(Nc2ccc(S(N)(=O)=O)cc2)c(C#N)c(-c2cc(OC)c(OC)c(OC)c2)n1"
active

Another compound to check: "Cc1ccc(-c2nnc3ccc(N/N=C/c4ccccc4)nn23)cc1"
inactive

Another compound to check: COc1cc2c(c(OC)c1OC)C(=O)CC(c1cccc(NC(=O)c3cc(NC(=O)[C@@H](N)CO)ccc3C)c1)O2 (some centres undefined)
inactive

Another compound to check: "COc1cc2nc(SCc3ccccc3)n(-c3ccc(Cl)cc3)c(=O)c2cc1OC"
inactive
